For each record, write down the corresponding Human TLR 8 (LEC).
- MEASURED ON: human TLR8 (Homo sapiens, UniProt Q9NR97)
- Construct: expressed in transfected cells; host or cells: HEK293
- Sequence (Q9NR97 27-1041): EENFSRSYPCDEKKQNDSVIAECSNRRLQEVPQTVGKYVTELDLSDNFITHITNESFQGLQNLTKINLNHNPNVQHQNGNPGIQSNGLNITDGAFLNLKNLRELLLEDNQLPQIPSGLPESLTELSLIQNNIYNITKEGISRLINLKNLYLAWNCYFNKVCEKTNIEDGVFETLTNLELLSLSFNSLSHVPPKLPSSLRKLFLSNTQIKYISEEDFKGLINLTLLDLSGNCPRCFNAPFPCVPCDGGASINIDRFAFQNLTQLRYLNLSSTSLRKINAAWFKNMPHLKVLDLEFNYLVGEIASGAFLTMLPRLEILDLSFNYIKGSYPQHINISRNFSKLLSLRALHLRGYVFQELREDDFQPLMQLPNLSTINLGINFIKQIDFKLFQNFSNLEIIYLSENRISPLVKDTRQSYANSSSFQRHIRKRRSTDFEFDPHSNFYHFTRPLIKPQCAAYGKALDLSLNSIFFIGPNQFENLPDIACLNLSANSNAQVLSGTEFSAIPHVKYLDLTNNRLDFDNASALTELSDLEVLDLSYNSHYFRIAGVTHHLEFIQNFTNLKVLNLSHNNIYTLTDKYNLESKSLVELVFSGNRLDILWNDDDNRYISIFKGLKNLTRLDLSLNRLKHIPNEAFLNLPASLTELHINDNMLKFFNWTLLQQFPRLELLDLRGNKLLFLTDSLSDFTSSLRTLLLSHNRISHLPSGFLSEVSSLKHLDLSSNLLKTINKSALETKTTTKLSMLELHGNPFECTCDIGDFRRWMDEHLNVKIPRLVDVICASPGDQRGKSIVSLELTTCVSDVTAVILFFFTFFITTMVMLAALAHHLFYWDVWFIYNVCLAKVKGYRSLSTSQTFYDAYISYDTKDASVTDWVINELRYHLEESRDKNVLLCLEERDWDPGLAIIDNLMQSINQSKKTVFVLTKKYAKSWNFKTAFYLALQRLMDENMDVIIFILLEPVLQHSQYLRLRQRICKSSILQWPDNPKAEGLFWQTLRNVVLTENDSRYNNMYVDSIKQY
- ASSAY NOTES: TLR8 cellular NFκB-luc reporter assay in transiently transfected HEK293 cells
- Format: cell-based
- MEASUREMENT SETUP: lowest effective concentration, 6 hours incubation
Give bare numbers, in µM.

Completed entries (count: 4):
MOLECULE: CCC[C@H](CO)Nc1nc(N)nc2ccsc12
Human TLR 8 (LEC) [µM]: 7.2
//
MOLECULE: CCCC[C@@H](CO)Nc1nc(N)nc2c(C)csc12
Human TLR 8 (LEC) [µM]: 0.3
//
MOLECULE: CCCC[C@@H](CO)Nc1nc(N)nc2cc(C)sc12
Human TLR 8 (LEC) [µM]: 0.2
//
MOLECULE: CCCCNc1nc(N)nc2cc(C(C)(C)C)sc12
Human TLR 8 (LEC) [µM]: 1.2

Record Human TLR 8 (LEC) per entry; entries follow.
1. CCC[C@@H](CCO)Nc1nc(N)nc2c(C)csc12
2. CCCC[C@@H](CCO)Nc1nc(N)nc2ccsc12
3. CCCCCNc1nc(N)nc2c(C)csc12
4. CCCC[C@H](CO)Nc1nc(N)nc2c(C)csc12
5. CCCC(C)Nc1nc(N)nc2cc(C)sc12 (stereo not shown)
6. CCC[C@H](Nc1nc(N)nc2ccsc12)C(=O)OC

*A*
1. 1.6
2. 0.7
3. 1.9
4. 0.8
5. 6.9
6. 2.7

Record Human TLR 8 (LEC) per entry; entries follow.
1. CCCCCNc1nc(N)nc2ccsc12
2. CCCC[C@H](CO)Nc1nc(N)nc2ccsc12
3. CCC[C@H](Nc1nc(N)nc2c(C)csc12)C(=O)OC
4. CCCC[C@H](CO)Nc1nc(N)nc2cc(C)sc12
5. CCCC[C@@H](CCO)Nc1nc(N)nc2c(C)csc12
6. CCCCNc1nc(N)nc2c(C)csc12

*A*
[3.9, 0.5, 3.5, 0.6, 1.6, 1.0]
